Test Name: DRUGMATRIX: Serotonin (5-Hydroxytryptamine) 5-HT3 radioligand binding (ligand: [3H] GR-65630)
Assay type: cell membranes, Membrane
Run Conditions: hek293; Not Active = under 50% inhibition at 10 µM
Measure: Ki

Reference set (5 entries):
O=P1(NCCCl)OCCCN1CCCl (configuration not stated) [IFOSFAMIDE]	Not Active
CCOC(=O)c1ccc(N)cc1 [BENZOCAINE]	Not Active
O=C1OCCN1/N=C/c1ccc([N+](=O)[O-])o1 [FURAZOLIDONE]	Not Active
COc1ccc2cc(CC(=O)O)ccc2c1	Not Active
CCCc1cc(=O)[nH]c(=S)[nH]1 [PROPYLTHIOURACIL]	Not Active

Could you please provide reported Ki for CCCC[C@@H](CC)COC(=O)c1ccccc1C(=O)OC[C@@H](CC)CCCC [BIS(2-ETHYLHEXYL)PHTHALATE] ? Thanks!
Not Active

Could you please provide reported Ki for c1ccc2c(c1)cc1ccc3cccc4ccc2c1c34 ? Thanks!
Not Active

Could you please provide reported Ki for COC(=O)C1=C(C)NC(C)=C(C(=O)OC)C1c1ccccc1[N+](=O)[O-] [NIFEDIPINE] ? Thanks!
Not Active

Could you please provide reported Ki for COC(=O)c1ccc(O)cc1 [METHYLPARABEN] ? Thanks!
Not Active

Could you please provide reported Ki for CN(N=O)C(=O)N[C@@H](C=O)[C@@H](O)[C@H](O)[C@H](O)CO [STREPTOZOCIN] ? Thanks!
Not Active

Could you please provide reported Ki for CC(C)(Oc1ccc(CCNC(=O)c2ccc(Cl)cc2)cc1)C(=O)O [BEZAFIBRATE] ? Thanks!
Not Active

Could you please provide reported Ki for CC(=O)[C@@]1(O)CC[C@H]2[C@@H]3C[C@H](C)C4=CC(=O)C=C[C@]4(C)[C@@]3(F)[C@@H](O)C[C@@]21C [FLUOROMETHOLONE] ? Thanks!
Not Active

Could you please provide reported Ki for CCCCOC(=O)c1ccc(N)cc1 [BUTAMBEN] ? Thanks!
Not Active

Could you please provide reported Ki for COC(=O)[C@@H]1[C@H]2C[C@H]3c4[nH]c5ccccc5c4CCN3C[C@@H]2CC[C@@H]1O [YOHIMBINE] ? Thanks!
Not Active

Could you please provide reported Ki for NCC1(CC(=O)O)CCCCC1 [GABAPENTIN] ? Thanks!
Not Active

Could you please provide reported Ki for CN(C)[C@@H]1C(O)=C(C(N)=O)C(=O)[C@@]2(O)C(O)=C3C(=O)c4c(O)cccc4[C@@](C)(O)[C@H]3[C@H](O)[C@@H]12 [OXYTETRACYCLINE] ? Thanks!
Not Active

Could you please provide reported Ki for Oc1cccc2cccnc12 [OXYQUINOLINE] ? Thanks!
Not Active

Origin of measurements: ChEMBL document CHEMBL1909046
